Recorded values, source patent US20080199503A1.

tested target: T1, recombinant Angiotensin I converting enzyme, N-terminal catalytic site
T1 chain: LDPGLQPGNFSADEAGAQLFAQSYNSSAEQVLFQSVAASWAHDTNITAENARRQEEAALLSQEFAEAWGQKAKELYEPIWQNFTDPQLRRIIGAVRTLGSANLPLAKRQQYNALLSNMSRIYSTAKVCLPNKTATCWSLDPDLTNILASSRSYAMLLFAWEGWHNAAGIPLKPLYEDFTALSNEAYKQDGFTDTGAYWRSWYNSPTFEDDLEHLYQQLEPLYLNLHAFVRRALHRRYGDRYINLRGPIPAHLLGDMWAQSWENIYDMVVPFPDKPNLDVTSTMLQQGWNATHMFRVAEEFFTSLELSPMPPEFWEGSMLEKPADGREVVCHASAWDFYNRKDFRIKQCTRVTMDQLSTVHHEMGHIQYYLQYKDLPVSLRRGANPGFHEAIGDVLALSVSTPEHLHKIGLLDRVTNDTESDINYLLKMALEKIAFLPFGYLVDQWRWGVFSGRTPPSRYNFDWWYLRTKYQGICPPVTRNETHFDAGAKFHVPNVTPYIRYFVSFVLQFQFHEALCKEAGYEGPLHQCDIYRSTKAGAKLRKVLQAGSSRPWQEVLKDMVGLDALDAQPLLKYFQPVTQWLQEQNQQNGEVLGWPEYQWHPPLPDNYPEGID
Square brackets hold non-standard residues; d marks the D form. Ends that are not written are not given here. pGlu = O=C1CC[C@@H](C(=O)O)N1
The binders listed here are annotated with their pKi.
Reminder that pKi means the negative base-10 logarithm of the concentration expressed in mol/L.

Example cases with answers are listed next.
binder	readout number
[pGlu]SWPGPNIPP [EVASIN-10a]	6.89
EWPRPQIPP (pyroglutamic acid (<E) at position 1 (N-terminus)) [EVASIN-9a]	7.00
[pGlu]GGWPRPGPEIPP [EVASIN-13a]	7.30

Lab note: next binder to report on.
## Task Item [pGlu]DGPIPP [EVASIN-7a] : provide pKi
## Result 4.15
